Assay: Probe fluorescence ratio response to linolenic acid relative to ADIFAB2
Assay type: binding
Conditions: response relative to ADIFAB2

{"molecule": "40M, 72A (protein, listed as Rattus norvegicus, PEPTIDE (1)...(131) wild-type rat intestinal fatty acid binding protein) AFDGTWKVDRNENYEKFMEKMGINVVKRKLGAHDNLKLTMTQEGNKFTVKESSNFRNIDVVFELGVDFAYSAADGTELTGTWTMEGNKLVGKFKRVDNGKELIAVREISGNELIQTYTYEGVEAKRIFKKE", "DR/DR LNA": 1.021}
{"molecule": "106M, 72A (protein, listed as Rattus norvegicus, PEPTIDE (1)...(131) wild-type rat intestinal fatty acid binding protein) AFDGTWKVDRNENYEKFMEKMGINVVKRKLGAHDNLKLTITQEGNKFTVKESSNFRNIDVVFELGVDFAYSAADGTELTGTWTMEGNKLVGKFKRVDNGKELIAVMEISGNELIQTYTYEGVEAKRIFKKE", "DR/DR LNA": 0.490}
{"molecule": "106D, 72A (protein, listed as Rattus norvegicus, PEPTIDE (1)...(131) wild-type rat intestinal fatty acid binding protein) AFDGTWKVDRNENYEKFMEKMGINVVKRKLGAHDNLKLTITQEGNKFTVKESSNFRNIDVVFELGVDFAYSAADGTELTGTWTMEGNKLVGKFKRVDNGKELIAVDEISGNELIQTYTYEGVEAKRIFKKE", "DR/DR LNA": 0.591}
